Just for reference, the RNAGym collection of RNA variant scans (doi:10.1093/nar/gkz1192) is where these values come from.

B1: CPEB3 Ribozyme (parent)
chain: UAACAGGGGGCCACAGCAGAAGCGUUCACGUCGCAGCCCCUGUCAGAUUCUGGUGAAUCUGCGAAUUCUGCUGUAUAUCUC

variants of: B1; experiment: self-cleavage, relative activity (ratio to wild type); higher = more cleavage; in vitro, sequencing
Entries and their measured self-cleavage follow.
# output: bare number, no unit

Examples with their reported self-cleavage follow.
Record sequence	self-cleavage
UAACAGGGGGCCACAGCCGAAGCGUUCACGUCGCAGCCCCUGUCAGAUUAUGGUGAAUCUGCGAAUUCUGCUGUAUAUCUC [A18C C50A]	0.12
CAACAGGGGGCCACAGCAGAAGCGUUCACGUCGCAGCCCCUGUCAGAUUCGGGUGAAUCUGCGAAUUCUGCUGUAUAUCUC [U1C U51G]	0.97
UAACAGGUGGCCACAGCAGAAGCUUUCACGUCGCAGCCCCUGUCAGAUUCUGGUGAAUCUGCGAAUUCUGCUGUAUAUCUC [G8U G24U]	0.13
UAACAGGGGGCCACAGCAGAAGCGUUCACGUCGCAGCCCCUGUCAGAUUCUGGUGAAUCUGCGAAUUCUGCUGUACAUGUC [U76C C79G]	1.22
UAACGGGGGGCCACAGCAGAAGCGUUCGCGUCGCAGCCCCUGUCAGAUUCUGGUGAAUCUGCGAAUUCUGCUGUAUAUCUC [A5G A28G]	0.48

Please give the documented self-cleavage of UAACAGGGGGCCACAGCAGAUGCGUUCACGUCGCAGCCCCUGUCAGAUUCUGGUGAAUCUGCGAAUUCUGGUGUAUAUCUC [A21U C71G]
0.09
